# Target of assay: isolated recombinant JAK2 kinase domain (Homo sapiens (Human), UniProt O60674)
# Sequence (O60674 849-1124): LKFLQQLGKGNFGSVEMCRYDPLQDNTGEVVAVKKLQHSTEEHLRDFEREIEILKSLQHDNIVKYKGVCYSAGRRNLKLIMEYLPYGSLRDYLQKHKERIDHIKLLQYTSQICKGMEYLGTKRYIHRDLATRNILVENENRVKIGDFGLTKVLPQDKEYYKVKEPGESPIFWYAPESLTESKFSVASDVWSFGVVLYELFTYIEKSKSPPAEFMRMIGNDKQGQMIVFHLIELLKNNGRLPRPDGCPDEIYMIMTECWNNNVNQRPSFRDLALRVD
# Assay info: JAK enzyme assay (Caliper LabChip peptide phosphorylation), JAK2
# Test conditions: 0.2 nM JAK2, ATP 25 μM, Morrison tight binding model
Below is a list of entries, each paired with its recorded Ki value.
The response must be a number in nM with no trailing unit.

A selection of reference data follows.
O=C(Nc1c[nH]nc1-c1cc(Cl)ccc1OC(F)F)c1cncc2[nH]cnc12 2.55
O=C(Nc1c[nH]nc1-c1cc(Cl)ccc1OC(F)F)c1cnn2cc(F)cnc12 0.09
O=C(Nc1c[nH]nc1-c1cc(Cl)ccc1OC(F)F)c1snc2cccnc12 0.6
O=C(Nc1c[nH]nc1-c1cc(Cl)ccc1OC(F)F)c1cncc2scnc12 2.02
Cc1ccn2ncc(C(=O)Nc3c[nH]nc3-c3cc(Cl)ccc3OC(F)F)c2n1 0.41
O=C(Nc1c[nH]nc1-c1cc(Cl)ccc1OC(F)F)c1cncc2ccoc12 0.33
COc1ccc(Cl)cc1-c1n[nH]cc1NC(=O)c1cncc2scnc12 0.96
O=C(Nc1c[nH]nc1-c1cc(Cl)ccc1OC(F)F)c1cncc2cn[nH]c12 0.48

# input Give isolated recombinant JAK2 kinase domain (Homo sapiens (Human), UniProt O60674) Ki for the following compound: COc1ccc(Cl)cc1-c1nn(C)cc1NC(=O)c1cncc2cn[nH]c12
# output 0.35

# input Give isolated recombinant JAK2 kinase domain (Homo sapiens (Human), UniProt O60674) Ki for the following compound: COc1ccc(Cl)cc1-c1nn(C)cc1NC(=O)c1cncc2cn(C)nc12
# output 3.66

# input Give isolated recombinant JAK2 kinase domain (Homo sapiens (Human), UniProt O60674) Ki for the following compound: Nc1nc2c(C(=O)Nc3c[nH]nc3-c3cc(Cl)ccc3OC(F)F)cncc2s1
# output 0.06

====

# Target of assay: isolated recombinant JAK1 kinase domain (Homo sapiens (Human))
# Sequence (P23458 875-1153): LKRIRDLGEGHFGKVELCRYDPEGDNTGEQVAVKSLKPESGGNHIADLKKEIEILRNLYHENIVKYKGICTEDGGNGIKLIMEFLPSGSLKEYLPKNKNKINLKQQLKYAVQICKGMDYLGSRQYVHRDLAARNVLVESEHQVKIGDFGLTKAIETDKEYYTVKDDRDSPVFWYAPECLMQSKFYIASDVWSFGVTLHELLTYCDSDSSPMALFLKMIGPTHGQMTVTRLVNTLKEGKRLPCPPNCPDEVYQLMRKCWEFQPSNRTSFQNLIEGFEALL
# Assay info: JAK enzyme assay (Caliper LabChip peptide phosphorylation), JAK1
# Test conditions: 1.5 nM JAK1, ATP 25 μM, Morrison tight binding model
Below is a list of entries, each paired with its recorded Ki value.
The response must be a number in nM with no trailing unit.

Compound	Ki / nM
COc1ccc(Cl)cc1-c1nn(C)cc1NC(=O)c1cncc2cn(C)nc12 [Example 1]	3.63
COc1ccc(Cl)cc1-c1n[nH]cc1NC(=O)c1cncc2scnc12 [Example 3]	6.55
Nc1nc2c(C(=O)Nc3c[nH]nc3-c3cc(Cl)ccc3OC(F)F)cncc2s1 [Example 5]	0.97
COc1ccc(Cl)cc1-c1nn(C)cc1NC(=O)c1cncc2cn[nH]c12 [Example 2]	1.35
O=C(Nc1c[nH]nc1-c1cc(Cl)ccc1OC(F)F)c1coc2cccnc12 [Example 11]	0.56
Nc1nn2cccnc2c1C(=O)Nc1c[nH]nc1-c1cc(Cl)ccc1OC(F)F [Example 9]	0.49

# input Give isolated recombinant JAK1 kinase domain (Homo sapiens (Human)) Ki for the following compound: O=C(Nc1c[nH]nc1-c1cc(Cl)ccc1OC(F)F)c1snc2cccnc12 [Example 7]
# output 0.54

# input Give isolated recombinant JAK1 kinase domain (Homo sapiens (Human)) Ki for the following compound: COc1ccn2ncc(C(=O)Nc3c[nH]nc3-c3cc(Cl)ccc3OC(F)F)c2n1 [Example 14]
# output 0.18

# input Give isolated recombinant JAK1 kinase domain (Homo sapiens (Human)) Ki for the following compound: Cc1ccn2ncc(C(=O)Nc3c[nH]nc3-c3cc(Cl)ccc3OC(F)F)c2n1 [Example 13]
# output 2.29
